Target: Ubiquitin carboxyl-terminal hydrolase 30 (Homo sapiens) (UniProt Q70CQ3)
Sequence (Q70CQ3 whole entry, looked up): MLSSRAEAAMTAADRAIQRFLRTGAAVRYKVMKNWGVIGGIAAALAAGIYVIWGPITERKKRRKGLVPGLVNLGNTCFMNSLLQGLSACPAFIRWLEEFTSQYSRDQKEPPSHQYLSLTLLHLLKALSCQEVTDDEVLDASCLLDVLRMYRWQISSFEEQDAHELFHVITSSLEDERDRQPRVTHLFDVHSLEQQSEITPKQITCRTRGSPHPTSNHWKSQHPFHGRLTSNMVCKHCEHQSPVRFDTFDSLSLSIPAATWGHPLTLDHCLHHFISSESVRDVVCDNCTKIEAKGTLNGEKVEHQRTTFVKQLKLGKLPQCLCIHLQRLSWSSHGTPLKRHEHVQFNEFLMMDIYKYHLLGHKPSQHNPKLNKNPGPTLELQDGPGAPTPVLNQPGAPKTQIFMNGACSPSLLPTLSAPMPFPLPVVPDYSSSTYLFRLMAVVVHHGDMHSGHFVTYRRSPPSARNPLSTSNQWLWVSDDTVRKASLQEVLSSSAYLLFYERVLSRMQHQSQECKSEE
Experiment: inhibitors of ubiquitin-specific protease 30 deubiquitylating enzyme, concentration dependence, in vitro biochemical, validation of primary hits (AID 1645865)
Details: purified USP30, Ub-rhodamine cleavage, fluorescence, 2 h
Activity calls are given as the source filed them.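 Rule for the calls: active = maximal inhibition of the USP30 enzyme reaching 30% or more across the dose series; inactive = the rest.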
Outcomes: active, inactive

>>> answer_label("Cc1ccc(NC(=O)Cc2nnc3cc(-c4nc(C)no4)ccn23)cc1")
"active"
>>> answer_label("Cc1cccc(C(=O)Nc2ccc3c(c2)nc(CSc2nccc(C)n2)n3C)c1")
"inactive"
>>> answer_label("O=C(Cn1nc2c3c4c(sc3ncn2c1=O)CCCCC4)Nc1ccc(Cl)cc1F")
"active"
>>> answer_label("CC1=C(c2ccc(F)cc2)S(=O)(=O)N=C1Nc1ccc(Cl)cc1")
"active"
>>> answer_label("Cc1ccc2c(c1)[C@]1(C(=O)N2)[C@@H](C(=O)c2ccccc2)[C@]2(C(=O)Nc3ccccc32)[C@@H]2CCCN21")
"active"
>>> answer_label("COc1cccc(NC(=O)C2Cc3ccccc3N2C(=O)c2ccccc2)c1 (configuration not stated)")
"active"
>>> answer_label("CC1OC(CC(=O)O)CC23OC12C(=O)c1c(O)cccc1C3=O (configuration not stated)")
"inactive"
>>> answer_label("Cc1ccc2nc(NC(=O)C3CCCN3S(=O)(=O)c3ccc4c(c3)OCCO4)sc2c1 (configuration not stated)")
"inactive"
>>> answer_label("CCOc1ccc2[nH]c3c(=O)n(CCc4ccc(OC)cc4)cnc3c2c1")
"active"
>>> answer_label("COc1ccc(-c2cc(N3CCC(NC(=O)c4ccccc4)C3)n[nH]2)cc1 (configuration not stated)")
"active"
>>> answer_label("O=C(Nc1cccc(Cl)c1)N1CCN(c2cc(C(F)(F)F)ccn2)CC1")
"active"
>>> answer_label("Cc1ccccc1N1C(=O)/C(=C\\c2cccn2C)c2ccccc2C1=O")
"inactive"
>>> answer_label("Cc1ccccc1C(=O)Nc1ccc(Cc2ccc(NC(=O)c3ccccc3C)c(O)c2)cc1O")
"inactive"
>>> answer_label("Cc1ccc(C(=O)NCCc2nc(-c3ccc4c(c3)OCO4)n[nH]2)cc1F")
"active"
>>> answer_label("Cc1cc(C)c(NC(=O)Cn2c(=O)n(CCC(=O)NCc3ccc4c(c3)OCO4)c(=O)c3sccc32)c(C)c1")
"active"
>>> answer_label("NS(=O)(=O)c1cccc(NC(=O)CN2CCCc3ccccc32)c1")
"inactive"
>>> answer_label("CC1(C)Cc2c(c(-c3ccco3)nc3sc4c(SCCCc5ccccc5)ncnc4c23)CO1")
"inactive"
>>> answer_label("Cc1ccc(-c2c(C(=O)Nc3ccc(S(N)(=O)=O)cc3)oc(=O)c3ccccc23)cc1")
"active"
>>> answer_label("Cc1nc2sc(C(=O)Nc3ccccc3Br)c(N)c2c(C)c1C")
"active"
>>> answer_label("CCCc1nc2sc3c(NCc4ccco4)ncnc3c2c2c1CCC2")
"inactive"
>>> answer_label("COc1ccc(CCNc2c(-c3ccccc3O)nc3cnccn23)cc1OC")
"inactive"
>>> answer_label("COc1cccc(C(=O)NCC(=O)Nc2nc3ccccc3[nH]2)c1")
"active"
>>> answer_label("CCCCCn1c(Sc2ccc(C)cc2)nc2c1c(=O)[nH]c(=O)n2C")
"active"
>>> answer_label("Cc1sc2ncn3c(=O)n(CC(=O)Nc4ccc(F)c(Cl)c4)nc3c2c1C")
"active"
>>> answer_label("CC(C)C(=O)Nc1ccc(N2CCN(Cc3ccc(F)cc3)C2=O)nc1")
"active"
>>> answer_label("COc1cc(OC)c(NC(=O)Cn2c(=O)n(Cc3ccccc3Cl)c(=O)c3cc(OC)c(OC)cc32)cc1Cl")
"active"
>>> answer_label("COc1ccc(Nc2nc3c(S(=O)(=O)c4ccc(C)cc4)nnn3c3ccsc23)c(OC)c1")
"active"
>>> answer_label("O=C(CN1C(=O)C2CCCC2=Nc2ccccc21)Nc1ccc(F)cc1F (configuration not stated)")
"active"
>>> answer_label("CCOC(=O)c1sc2nc(CC(=O)OC)nc(NCc3ccco3)c2c1C")
"inactive"
>>> answer_label("CCN1CCN(C(=O)CCCN(c2ccccc2)S(C)(=O)=O)CC1")
"inactive"
>>> answer_label("O=C(CSc1ncnc2c1oc1ccccc12)NC1CCCC1")
"active"
>>> answer_label("O=C(Nc1ccc(-c2cn3ccsc3n2)cc1)c1ccc(Cl)c([N+](=O)[O-])c1")
"active"
>>> answer_label("Cc1ccc(S(=O)(=O)N(C)C)cc1NC(=O)Cc1ccc(Cl)c(Cl)c1")
"inactive"
>>> answer_label("CN1C(=O)COc2cc(-c3noc(C(=O)NC4CCCCCC4)n3)ccc21")
"active"
>>> answer_label("Cc1ccc2c(c1)-c1c(c(C(=O)N3CCN(c4ccccc4)CC3)nn1C)CS2")
"inactive"
>>> answer_label("CC(C)N1CC2CN(Cc3ccc(Cl)cc3)CCN2Cc2ccccc21 (configuration not stated)")
"inactive"
>>> answer_label("O=C(OC1CSc2nc3ccccc3n2C1)c1ccc([N+](=O)[O-])o1 (configuration not stated)")
"active"
>>> answer_label("Cc1nnc(NCc2cccnc2)c2c1nnn2Cc1ccccc1Cl")
"active"
>>> answer_label("CCn1cnc2c(-c3ccccc3)cn(CC(=O)NCc3ccc4c(c3)OCO4)c2c1=O")
"active"
>>> answer_label("Cc1c(-c2nsc(NC(=O)c3ccc(Cl)cc3)n2)nnn1-c1ccccc1F")
"active"
>>> answer_label("O=C(O)C1CCN(Cc2c(-c3ccco3)nc3ccc(Cl)cn23)CC1")
"inactive"
>>> answer_label("O=C1CC(C(=O)Nc2ccccc2Cl)n2nc(-c3ccccc3)cc2N1 (configuration not stated)")
"active"
